# Assayed Target: Voltage-gated inwardly rectifying potassium channel KCNH2 (Homo sapiens) (UniProt Q12809)
# Sequence (Q12809 whole entry, looked up): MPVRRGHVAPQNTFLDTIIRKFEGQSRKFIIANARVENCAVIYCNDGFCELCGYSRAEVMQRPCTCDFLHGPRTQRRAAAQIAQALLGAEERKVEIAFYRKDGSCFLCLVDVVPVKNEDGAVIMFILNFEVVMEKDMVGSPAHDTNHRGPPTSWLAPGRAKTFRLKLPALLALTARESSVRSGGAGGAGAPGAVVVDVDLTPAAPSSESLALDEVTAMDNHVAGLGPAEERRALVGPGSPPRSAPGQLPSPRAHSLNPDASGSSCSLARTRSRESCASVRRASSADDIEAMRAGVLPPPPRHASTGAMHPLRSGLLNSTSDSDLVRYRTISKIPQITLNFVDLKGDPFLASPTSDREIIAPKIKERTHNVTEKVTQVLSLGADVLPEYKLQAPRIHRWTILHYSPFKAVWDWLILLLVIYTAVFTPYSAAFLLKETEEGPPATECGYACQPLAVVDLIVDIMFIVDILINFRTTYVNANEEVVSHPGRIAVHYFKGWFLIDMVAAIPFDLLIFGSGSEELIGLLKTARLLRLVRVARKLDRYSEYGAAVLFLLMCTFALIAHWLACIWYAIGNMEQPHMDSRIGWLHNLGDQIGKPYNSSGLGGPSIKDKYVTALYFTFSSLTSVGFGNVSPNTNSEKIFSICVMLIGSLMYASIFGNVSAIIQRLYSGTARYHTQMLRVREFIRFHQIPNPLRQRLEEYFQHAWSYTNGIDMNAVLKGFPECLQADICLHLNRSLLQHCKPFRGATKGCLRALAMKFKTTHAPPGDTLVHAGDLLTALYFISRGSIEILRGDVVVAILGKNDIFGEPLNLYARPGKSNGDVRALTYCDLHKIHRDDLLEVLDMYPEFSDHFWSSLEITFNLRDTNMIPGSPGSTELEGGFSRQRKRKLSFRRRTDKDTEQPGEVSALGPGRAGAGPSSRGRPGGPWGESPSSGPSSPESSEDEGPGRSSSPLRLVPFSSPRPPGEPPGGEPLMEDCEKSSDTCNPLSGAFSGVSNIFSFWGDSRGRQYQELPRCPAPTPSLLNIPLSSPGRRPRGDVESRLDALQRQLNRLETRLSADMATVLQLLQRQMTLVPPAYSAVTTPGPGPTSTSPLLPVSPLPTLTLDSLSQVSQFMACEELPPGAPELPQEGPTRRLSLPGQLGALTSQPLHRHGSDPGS
# Assay Text: hERG protection against dofetilide inhibition, confirmation, cell-based, thallium flux, duplicate retest, dofetilide IC70 (AID 1835)
# Run Conditions: hERG cell line, FluxOR thallium flux, dofetilide-blocked; at 10 µM; hits give high values
The whole screen tested about 2,400 compounds, of which about 750 (31%) were called active. The list shows a part of the results.
Quantity Measured: activity increase over dofetilide control, less the hit threshold (%)
Could you give me the number in %? Just the number is fine.

# example entries with known answers
[[record]]
compound = "Cc1nc2cc3sc(C)nc3cc2s1"
u = "%"
reported_measurement = -8

[[record]]
compound = "C=C(C)CNC(=S)NN=C1c2ccccc2-c2ccccc21"
u = "%"
reported_measurement = 15


Which activity increase over dofetilide control, less the hit threshold reading was recorded for the compound `O=C(NNC(=S)NC(=O)c1sc2ccccc2c1Cl)c1ccc(Cl)cc1` ?
70

Which activity increase over dofetilide control, less the hit threshold reading was recorded for the compound `C=CCNC(=S)N/N=C(\C)c1ccc(OC)cc1` ?
-4
